- test target: STAT3 (Homo sapiens)
- Construct: This cell line is a clone created by using CRISPR-Cas9 to fuse HiBiT to the 3′ end of STAT3 in HeLa cells; host or cells: STAT3-HiBiT KI HeLa cell line (CRISPR-Cas9 knock-in clone)
- Sequence (P40763 whole entry): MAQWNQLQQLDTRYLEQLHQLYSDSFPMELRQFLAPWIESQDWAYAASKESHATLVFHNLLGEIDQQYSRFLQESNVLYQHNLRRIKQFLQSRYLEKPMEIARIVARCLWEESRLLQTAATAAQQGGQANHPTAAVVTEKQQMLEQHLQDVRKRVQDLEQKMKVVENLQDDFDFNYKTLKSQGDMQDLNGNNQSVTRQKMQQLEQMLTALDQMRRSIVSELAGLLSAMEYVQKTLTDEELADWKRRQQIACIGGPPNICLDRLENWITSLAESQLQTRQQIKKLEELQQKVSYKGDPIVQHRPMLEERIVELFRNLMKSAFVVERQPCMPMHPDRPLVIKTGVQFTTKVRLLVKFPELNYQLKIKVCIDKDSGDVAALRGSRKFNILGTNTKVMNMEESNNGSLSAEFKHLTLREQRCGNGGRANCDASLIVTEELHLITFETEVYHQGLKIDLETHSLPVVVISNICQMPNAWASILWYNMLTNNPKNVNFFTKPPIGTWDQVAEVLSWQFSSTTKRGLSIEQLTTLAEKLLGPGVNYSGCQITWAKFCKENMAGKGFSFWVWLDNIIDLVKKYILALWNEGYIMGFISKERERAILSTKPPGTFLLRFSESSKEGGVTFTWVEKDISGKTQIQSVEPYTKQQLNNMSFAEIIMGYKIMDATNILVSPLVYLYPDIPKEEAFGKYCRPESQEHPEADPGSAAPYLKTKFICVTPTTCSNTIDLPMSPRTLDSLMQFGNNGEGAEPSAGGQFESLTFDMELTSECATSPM
- assay explanation: HiBiT assay, STAT3 degradation in STAT3-HiBiT KI HeLa cells
- Format: cell-based
- particulars: 24 h, @1 μM
- Protocol: STAT3 degradation may be determined by HiBiT assay. STAT3-HiBiT KI HeLa cell line, which is a clone created by using CRTISPR-Cas9 to fuse HiBiT to the 3′ end of STAT3 in HeLa cells, may be used for this assay. […] At the end of treatment, Nano-Glo HiBiT Lytic Detection reagents is added to the wells and luminescence is acquired on TECAN SPARK plate reader. […] IC50 values are calculated using a nonlinear regression analysis of the mean±SD from triplicate. […]
endpoint name: Dmax at 1 µM

[
  {
    "compound": "CCS(=O)(=O)c1ccc(CNC(=O)[C@H](CCC(N)=O)NC(=O)[C@@H]2CC[C@@H]3CCN(C(=O)CCCCc4cn([C@@H](C(=O)N5C[C@H](O)C[C@H]5C(=O)N[C@H](C)c5ccc(-c6scnc6C)cc5)C5CCOCC5)nn4)C[C@H](NC(=O)c4cc5cc(C(=O)P(=O)(O)O)ccc5[nH]4)C(=O)N32)cc1 [Compound 24]",
    "endpoint name": "Dmax at 1 µM",
    "measurement": "> 80%"
  },
  {
    "compound": "Cc1ncsc1-c1ccc([C@H](C)NC(=O)[C@@H]2C[C@@H](O)CN2C(=O)[C@@H](n2cc(CCCCC(=O)N3CC[C@H]4CC[C@@H](C(=O)N[C@@H](CCC(N)=O)C(=O)NCc5cccc(Cl)c5)N4C(=O)[C@@H](NC(=O)c4cc5cc(C(=O)P(=O)(O)O)ccc5[nH]4)C3)nn2)C(C)(C)C)cc1 [Compound 10]",
    "endpoint name": "Dmax at 1 µM",
    "measurement": "> 80%"
  },
  {
    "compound": "Cc1ncsc1-c1ccc([C@H](C)NC(=O)[C@@H]2C[C@@H](O)CN2C(=O)[C@@H](n2cc(CCCc3cccc(OC[C@H](CCC(N)=O)NC(=O)[C@@H]4CC[C@@H]5CCN(C(=O)C(C)C)C[C@H](NC(=O)c6cc7cc(C(=O)P(=O)(O)O)ccc7[nH]6)C(=O)N54)c3Cl)nn2)C(C)(C)C)cc1 [Compound 2]",
    "endpoint name": "Dmax at 1 µM",
    "measurement": "> 80%"
  }
]
